Experiment: qHTS drug screen for cell cycle checkpoint inhibitors in PARPi-resistant BRCA-mutant ovarian cancer cell lines. (AID 1963452)
Conditions: PEO1/OlaR viability, CellTiter-Glo luminescence, 96 h; measured here: PEO1 parental Z-AUC; stronger effect = lower value
Simple rule here: Z-AUC less than 0.9 is met, otherwise not met.

molecule smiles | class
CCCCCOC(=O)Nc1nc(=O)n([C@@H]2O[C@H](C)[C@@H](O)[C@H]2O)cc1F | met
OC[C@@H](O)[C@@H](O)[C@H](O)[C@H](O)CO | met
CCOC(=O)[C@H](CCc1ccccc1)N[C@@H](C)C(=O)N1CCC[C@H]1C(=O)O | met
O=C(O)/C=C/c1ccc(Cn2ccnc2)cc1 | not met
C/C=C/C(=O)N(CC)c1ccccc1C | met
OCCN1C[C@H](O)[C@@H](O)[C@H](O)[C@H]1CO | not met
COc1ccc(-c2cc(=O)c3c(O)cc(O[C@@H]4O[C@H](CO[C@@H]5O[C@@H](C)[C@H](O)[C@@H](O)[C@H]5O)[C@@H](O)[C@H](O)[C@H]4O)cc3o2)cc1O | not met
CN(C(=O)c1c(O)c2ccccc2n(C)c1=O)c1ccccc1 | met
O=c1[nH]c(=O)n([C@H]2C[C@H](O)[C@@H](CO)O2)cc1I | met

Where do these numbers come from? They come from PubChem BioAssay (NCATS).
